# assay: in vivo
# setup_conditions: mouse, ip, intraperitoneal, hydrochloride, male ddy mice
readout_type: LD50 (mg/kg)
Response body: numeric value in mg/kg, unit text excluded.

Field: example entries. Status: answers known.
1) Nc1nn(CCCN2CCC(O)CC2)c2ccc(Cl)cc12 | 251
2) CCCCN(CCCC)CCCNc1n[nH]c2ccc(Cl)cc12 | 211
3) CCN(CC)CCCNc1nn(CCC(C)N2CCCCC2)c2ccc(Cl)cc12 (centres unmarked) | 277
4) CCN(CC)CCCNc1nn(CCCN(CC)CC)c2ccc(C)cc12 | 211
5) Nc1nn(CCCCCCN2CCCCC2)c2ccc(Cl)cc12 | 337
6) CC(CCNc1nn(CCCN2CCCCC2)c2ccc(O)cc12)N1CCCCC1 (centres unmarked) | 330
7) CCN(CC)CCCNc1n[nH]c2c(I)cccc12 | 253
8) Oc1ccc2[nH]nc(NCCCN3CCOCC3)c2c1 | 346

Name the recorded LD50 of the item CC(CCNc1n[nH]c2ccc(Cl)cc12)N(C)C (centres unmarked) in your answer. 313

Name the recorded LD50 of the item CC(CCn1nc(N)c2cc(O)ccc21)N(C)C (centres unmarked) in your answer. 241

Name the recorded LD50 of the item CC1CCCCN1CCCNc1nn(CCCN2CCCC2)c2ccc(O)cc12 (centres unmarked) in your answer. 291

* * *

# assay: in vivo
# setup_conditions: mouse, ip, intraperitoneal, hydrochloride, male ddy mice
readout_type: LD50 (mg/kg)
Response body: numeric value in mg/kg, unit text excluded.

1. CC1CCCCN1CCCNc1nn(CCCN2CCCC2)c2ccc(Cl)cc12 (stereo not shown) [(113)] | 221
2. Clc1ccc2[nH]nc(NCCCN3CCCCC3)c2c1 [(55)] | 133
3. CCN(CC)CCCn1nc(N)c2c(O)cccc21 [(23)] | 179
4. Nc1n[nH]c2cc(O)ccc12 [(163), 3-Amino-6-hydroxyindazole] | 252
5. CCN(CC)CCCNc1nn(CCCN(CC)CC)c2cc(Cl)ccc12 [(91)] | 251
6. CCN(CC)CCCNc1nn(CCCN(CC)CC)c2ccc(I)cc12 [(123)] | 291
7. CCN(CC)CCCNc1n[nH]c2ccc(OC)cc12 [(50)] | 200
8. CCN(CC)C(CCn1nc(N)c2cc(Cl)ccc21)CC(C)C (stereo not shown) [(10)] | 239
9. c1ccc2c(NCCN3CCOCC3)n[nH]c2c1 [(154), 3-(2-Morpholinoethylamino)indazole] | 351

Name the recorded LD50 of the item Oc1ccc2[nH]nc(NCCCN3CCCCC3)c2c1 [(77)] in your answer. 251

* * *

# assay: in vivo
# setup_conditions: mouse, ip, intraperitoneal, hydrochloride, male ddy mice
readout_type: LD50

Field: example entries. Status: answers known.
1. CC(CCn1nc(N)c2cc(Cl)ccc21)N1CCCCC1 (stereo not drawn) [(13)] | 310 mg/kg
2. CC(CCn1nc(N)c2ccccc21)N1CCOCC1 (stereo not drawn) [(150), 1-(3-Morpholinobutyl)-3-aminoindazole] | 270 mg/kg
3. CC(CCNc1n[nH]c2ccc(O)cc12)N(C)C (stereo not drawn) [(75)] | 234 mg/kg
4. CCN(CC)CCCNc1nn(CCCN(CC)CC)c2cccc(Cl)c12 [(89)] | 214 mg/kg
5. CC1CCCCN1CCCn1nc(N)c2cc(O)ccc21 (stereo not drawn) [(37)] | 267 mg/kg

Name the recorded LD50 of the item Nc1nn(CCCN2CCCC2)c2ccc(O)cc12 [(43)] in your answer. 211 mg/kg

Name the recorded LD50 of the item CCN(CC)C(CCNc1n[nH]c2ccc(Cl)cc12)CC(C)C (stereo not drawn) [(54)] in your answer. 251 mg/kg

Name the recorded LD50 of the item CCCCN(CCCC)CCCNc1nn(CCCN(CC)CC)c2ccc(Cl)cc12 [(98)] in your answer. 286 mg/kg

Name the recorded LD50 of the item CC(C)CC(CCNc1nn(CCC(C)N2CCCCC2)c2ccc(Cl)cc12)N1CCCCC1 (stereo not drawn) [(106)] in your answer. 228 mg/kg

Name the recorded LD50 of the item CN1CCN(CCCNc2nn(CCCN3CCCC3)c3ccc(O)cc23)CC1 [(144)] in your answer. 281 mg/kg

Name the recorded LD50 of the item CC(CCn1nc(N)c2cc(O)ccc21)N1CCCCC1 (stereo not drawn) [(35)] in your answer. 246 mg/kg

Name the recorded LD50 of the item Nc1n[nH]c2c(I)cccc12 [(166), 3-Amino-7-iodoindazole] in your answer. 198 mg/kg

Name the recorded LD50 of the item CCN(CC)C(CCNc1n[nH]c2ccc(O)cc12)CC(C)C (stereo not drawn) [(76)] in your answer. 146 mg/kg

Name the recorded LD50 of the item Nc1nn(CCCN2CCC(Cl)CC2)c2ccc(O)cc12 [(40)] in your answer. 335 mg/kg

Name the recorded LD50 of the item c1ccc2c(c1)c(NCCCN1CCOCC1)nn2CCCN1CCCCC1 [(160)] in your answer. 244 mg/kg

Name the recorded LD50 of the item CCN(CC)CCCNc1nn(CCCN2CCOCC2)c2ccccc12 [(155)] in your answer. 291 mg/kg

Name the recorded LD50 of the item CC(CCn1nc(NCCCN2CCCCC2)c2cc(O)ccc21)N1CCCCC1 (stereo not drawn) [(135)] in your answer. 298 mg/kg

Name the recorded LD50 of the item CCN(CC)CCCn1nc(NCCCN2CCCCC2)c2cc(O)ccc21 [(126)] in your answer. 310 mg/kg

Name the recorded LD50 of the item ClC1CCN(CCCNc2nn(CCCN3CCOCC3)c3ccccc23)CC1 [(157)] in your answer. 251 mg/kg

Name the recorded LD50 of the item Nc1cc(N)c2[nH]nc(N)c2c1 [(167), 3,5,7-Triaminoindazole] in your answer. 171 mg/kg

Name the recorded LD50 of the item Nc1nn(CCCN2CCCCCC2)c2ccc(Cl)cc12 [(19)] in your answer. 251 mg/kg

* * *

# Test system: Carrageenin edema in rat's paw
# assay: Carrageenin Edema Test in Rat's Paw (anti-inflammatory activity, Table 1)
# Type: in vivo
# setup_conditions: 100 mg/kg oral, hydrochloride, rat
readout_type: inhibition in vivo at 100 mg/kg (%)
Response body: numeric value in %, unit text excluded.

Field: example entries. Status: answers known.
1) CCN(CC)CCCn1nc(NCCCN2CCCCC2)c2cc(O)ccc21 | 28
2) CCN(CC)CCCNc1nn(CCCN(CC)CC)c2ccc(Cl)cc12 | 29
3) CCN(CC)CCCNc1nn(CCCN(CC)CC)c2ccc(OC)cc12 | 30
4) CC1CCCC(C)N1CCCNc1nn(CCCN2CCOCC2)c2ccc(Cl)cc12 (stereo not drawn) | 33
5) CC(C)CC(CCNc1n[nH]c2ccc(O)cc12)N1CCCCC1 (stereo not drawn) | 32
6) CCN(CC)CCCNc1nn(CCCN(CC)CC)c2cc(Cl)ccc12 | 22
7) CCN(CC)CCCn1nc(NCCC(C)N2CCCCC2)c2cc(O)ccc21 (stereo not drawn) | 27
8) CCN(CC)CCCn1nc(NCCCCCCN2CCCCC2)c2cc(Cl)ccc21 | 22

Name the recorded inhibition in vivo at 100 mg/kg of the item "CCN(CC)CCCNc1nn(CCCN(CC)CC)c2cccc(O)c12" in your answer. 29

Name the recorded inhibition in vivo at 100 mg/kg of the item CC(C)CC(CCn1nc(N)c2cc(Cl)ccc21)N1CCCCC1 (stereo not drawn) in your answer. 34

Name the recorded inhibition in vivo at 100 mg/kg of the item "CCN(CC)CCCNc1nn(CCCN(CC)CC)c2ccc(O)cc12" in your answer. 28

Name the recorded inhibition in vivo at 100 mg/kg of the item CC(C)CC(CCn1nc(N)c2cc(O)ccc21)N1CCCCC1 (stereo not drawn) in your answer. 32

Name the recorded inhibition in vivo at 100 mg/kg of the item "CN1CCN(CCCn2nc(N)c3cc(Cl)ccc32)CC1" in your answer. 26

Name the recorded inhibition in vivo at 100 mg/kg of the item "OC1CCN(CCCNc2nn(CCCN3CCOCC3)c3ccccc23)CC1" in your answer. 30

Name the recorded inhibition in vivo at 100 mg/kg of the item "Nc1nn(CCCN2CCCCC2)c2ccc(Cl)cc12" in your answer. 54

* * *

# assay: in vivo
# setup_conditions: mouse, ip, intraperitoneal, hydrochloride, male ddy mice
readout_type: LD50 (mg/kg)
Response body: numeric value in mg/kg, unit text excluded.

Field: example entries. Status: answers known.
1) Clc1ccc2[nH]nc(NCCCN3CCOCC3)c2c1 | 246
2) CC(C)CC(CCNc1n[nH]c2ccc(Cl)cc12)N1CCCCC1 (stereo not shown) | 180
3) Clc1ccc2c(c1)c(NCCCN1CCCCCC1)nn2CCCN1CCCC1 | 325
4) CC(CCNc1nn(CCCN2CCCCC2)c2ccc(Cl)cc12)N1CCCCC1 (stereo not shown) | 261

Name the recorded LD50 of the item "Oc1ccc2c(c1)c(NCCCN1CCCCCC1)nn2CCCN1CCCC1" in your answer. 349

Name the recorded LD50 of the item "Oc1ccc2c(c1)c(NCCCN1CCC(O)CC1)nn2CCCN1CCOCC1" in your answer. 245

Name the recorded LD50 of the item "Nc1nn(CCCN2CCOCC2)c2ccc(Cl)cc12" in your answer. 388

Name the recorded LD50 of the item "CCN(CC)CCCn1nc(NCCCN2CCCCC2)c2cc(Cl)ccc21" in your answer. 243

Name the recorded LD50 of the item CC1CCCC(C)N1CCCNc1nn(CCCN2CCOCC2)c2ccc(O)cc12 (stereo not shown) in your answer. 198

Name the recorded LD50 of the item "CCN(CC)CCCNc1n[nH]c2ccc(I)cc12" in your answer. 256
